Test: NCI Yeast Anticancer Drug Screen. Data for the mlh1 rad18 strain (AID 175)
Conditions: S. cerevisiae mlh1 rad18 strain growth inhibition; at 50.0 µM
About 79,000 compounds went through this panel and 15% of them were active in at least one assay; those are over-represented in the sample as a whole. Active and inactive are the calls of the source. No stated cut-off is given here; in the data, active means growth inhibition above about 70%; inactive means the rest.
Permitted responses: 1.0 for active, 0.0 for inactive

Example cases with answers are listed next.
>  <molecule>
CC(C)CC(Nc1ccc2ccccc2c1)C(N)=O (stereo not given)

>  <label-class>
0.0

$$$$
>  <molecule>
Brc1c(-c2ccccc2)oc2nc3ccccc3nc12

>  <label-class>
0.0

$$$$
>  <molecule>
CC1(C)OC2OC(C3CC3)C(O)C2O1 (stereo not given)

>  <label-class>
0.0

$$$$
>  <molecule>
c1ccc(Nc2ccc3ccccc3n2)cc1

>  <label-class>
0.0

$$$$
>  <molecule>
Cc1ccc(C(C)C)cc1OCCOCCCl

>  <label-class>
0.0

$$$$
>  <molecule>
CCC(C)C(CC)C(=O)N(C)C(=O)N(C)C(C)=O (stereo not given)

>  <label-class>
0.0

$$$$

What is the recorded call for this molecule in the test? CCOC(=O)NC(C(N)=O)C(N)=O
0.0

What is the recorded call for this molecule in the test? O=C(O)c1ccc(C2C(=O)N[C@@H]3CCC[C@H]23)cc1 (stereo not given in full)
0.0

What is the recorded call for this molecule in the test? N#C/C(C(N)=O)=C1\CCCc2sccc21
0.0

What is the recorded call for this molecule in the test? N=C1N=C(N)C(CCCOc2cc(Cl)ccc2Cl)(CCCOc2cc(Cl)ccc2Cl)C(N)=N1
1.0

What is the recorded call for this molecule in the test? O=C(O)Cc1c(O)ccc2ccccc12
0.0

What is the recorded call for this molecule in the test? O=C1OCC/C1=C\c1ccsc1
0.0

----------
Assay: NCI Yeast Anticancer Drug Screen. Data for the bub3 strain (AID 167)
Conditions: S. cerevisiae bub3 mutant strain, at 50.0 µM, stronger effect = higher value
Compounds without any hit were thinned out: in the full panel of roughly 79,000, 15% have a hit.
readout: growth inhibition (%)
Give just the number in %; leave the unit off.

Solved cases below.
>  <molecule>
CC(O)C12OC1CC1C3CC4OC45CC(O)CCC5(C)C3CCC12C (configuration not stated)

>  <readout>
growth inhibition

>  <unit-info>
%

>  <measured-result>
36.9

$$$$
>  <molecule>
NC(=O)N/N=C(/CC1C(=O)Oc2ccccc21)c1ccccc1O (configuration not stated)

>  <readout>
growth inhibition

>  <unit-info>
%

>  <measured-result>
-24.9

$$$$
>  <molecule>
[O-][n+]1ccncc1Cl

>  <readout>
growth inhibition

>  <unit-info>
%

>  <measured-result>
18.6

$$$$
>  <molecule>
CCC1CCCCCC1=O (configuration not stated)

>  <readout>
growth inhibition

>  <unit-info>
%

>  <measured-result>
-30.4

$$$$

// growth inhibition lookup, key: Br
-30.6

// growth inhibition lookup, key: CCON=C1C(C)(C)C(C)(C)C(C)(C)C1(C)C
-16.1

----------
Assay: NCI Yeast Anticancer Drug Screen. Data for the mec2-1 strain (AID 157)
Settings: S. cerevisiae mec2-1 strain, at 50.0 µM, stronger effect = higher value
Compounds without any hit were thinned out: in the full panel of roughly 79,000, 15% have a hit. Activity calls are given as the source filed them. No stated cut-off is given here; in the data, active means growth inhibition above about 70%; inactive means the rest.
growth inhibition listing for selected compounds.

>  <compound>
O=C1CSC=NN1c1ccccc1

>  <readout>
growth inhibition

>  <measured-result>
-6.75% (inactive)

$$$$
>  <compound>
COC(=O)c1ccc2c(c1)nnn2C(C)=O

>  <readout>
growth inhibition

>  <measured-result>
-12.7% (inactive)

$$$$
>  <compound>
C/C(CC(=O)Nc1cccc([N+](=O)[O-])c1)=N\NC(=O)C[n+]1ccccc1

>  <readout>
growth inhibition

>  <measured-result>
-16.9% (inactive)

$$$$
>  <compound>
COC(=O)N1c2ccccc2[C@@H](O)[C@@H]1OC

>  <readout>
growth inhibition

>  <measured-result>
11.7% (inactive)

$$$$

// growth inhibition lookup, key: COc1c(NC(=O)Nc2ccc(SC)cc2)cccc1[N+](=O)[O-]
15.6% (inactive)

// growth inhibition lookup, key: O=S(O)CCCCCSSSCCCCCS(=O)O
8.8% (inactive)

// growth inhibition lookup, key: CCOc1cccc(OCC)c1C
-17.4% (inactive)

// growth inhibition lookup, key: CCCCNC(=O)Nc1cccc(C)c1C
-7.9% (inactive)

// growth inhibition lookup, key: CCCCCC(=O)Nc1ccccc1
-6.3% (inactive)

// growth inhibition lookup, key: CC1(C)[C@@H]2C[C@H]1C(Cc1ccccc1C[C@H]1c3cc(-c4ccccn4)ncc3[C@H]3C[C@@H]1C3(C)C)c1cc(-c3ccccn3)ncc12 (stereo partly drawn)
39.3% (inactive)

// growth inhibition lookup, key: COC(=O)c1cc(C)c2c3ccccc3n(C)c2c1C(=O)OC
-0.4% (inactive)

// growth inhibition lookup, key: COc1cc(CC(=O)O)c(Br)cc1C
20.9% (inactive)

// growth inhibition lookup, key: NNC(=O)c1ccc2ccccc2c1O
14.8% (inactive)

----------
Assay: NCI Yeast Anticancer Drug Screen. Data for the sgs1 mgt1 strain (AID 161);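 further: 0% = growth of cultures given vehicle only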
Conditions: S. cerevisiae sgs1 mgt1 strain, at 50.0 µM, stronger effect = higher value
The panel holds about 79,000 compounds, 15% with a hit somewhere; the sample as a whole holds those more often.
growth inhibition listing for selected molecules.
Give just the number in %; leave the unit off.

>  <molecule>
O=C(O)CCc1c(-c2ccccc2)c(-c2ccccc2)c2n1CCC2

>  <unit-info>
%

>  <growth inhibition>
56.5

$$$$
>  <molecule>
Cc1c(N)cc2c(c1[N+](=O)[O-])C(C)(C)CC2(C)C

>  <unit-info>
%

>  <growth inhibition>
1.6

$$$$
>  <molecule>
CC(=O)NC(Cc1c[nH]c2ccccc12)C(=O)O (stereo unspecified)

>  <unit-info>
%

>  <growth inhibition>
-30.6

$$$$
>  <molecule>
O=C1CSC(c2cccc(F)c2)N1CCN1C(=O)CSC1c1cccc(F)c1 (stereo unspecified)

>  <unit-info>
%

>  <growth inhibition>
9.65

$$$$
>  <molecule>
NC(=S)NN/C=C(\C=Nc1ccccc1)[N+](=O)[O-]

>  <unit-info>
%

>  <growth inhibition>
4.15

$$$$

// growth inhibition lookup, key: COc1ccc(N=Nc2c(C)c(C#N)c(=S)n(C3OC(CO)C(O)C(O)C3O)c2-c2ccccc2)cc1 (stereo unspecified)
20.1

// growth inhibition lookup, key: CCCCOC(=O)C1CSSCC(NC(C)=O)C(=O)N1 (stereo unspecified)
1.5

// growth inhibition lookup, key: C/C(CC(=O)Nc1ccc(C)cc1C)=N/N=C(N)N
-15.2

// growth inhibition lookup, key: Cn1ncc2[nH]c(=O)n(OS(=O)(=O)c3ccccc3)c(=O)c21
-15.5

// growth inhibition lookup, key: CCCCCCCCCCCCCCCC(=O)OCC(O)CO (stereo unspecified)
-6.25

// growth inhibition lookup, key: CCC1(CC)C(=O)NN(C(=O)c2ccccc2)C1=O
28.4

----------
growth inhibition listing for selected molecules.
Test: NCI Yeast Anticancer Drug Screen. Data for the mlh1 rad18 strain (AID 175)
Details: S. cerevisiae mlh1 rad18 strain growth inhibition; at 50.0 µM; stronger effect = higher value
Compounds without any hit were thinned out: in the full panel of roughly 79,000, 15% have a hit.
Give just the number in %; leave the unit off.

>  <molecule>
Cc1ccc(F)cc1S(N)(=O)=O

>  <growth inhibition, %>
-7.8

$$$$
>  <molecule>
CC(=O)Oc1ccccc1C=C(C(=O)O)C(=O)O

>  <growth inhibition, %>
-10.9

$$$$
>  <molecule>
C=C1CC2(CC(c3ccccc3Cl)OC(c3ccccc3Cl)C2)OC1=O (configuration not stated)

>  <growth inhibition, %>
18.8

$$$$
>  <molecule>
O=[n+]1c2ccccc2n([O-])c2cn(-c3ccccc3)c(-c3ccccc3)c21

>  <growth inhibition, %>
89.2

$$$$

Alright, here's another molecule for you.
// growth inhibition lookup, key: CN(C)S(=O)(=O)N(C)C
26.2

----------
Test: NCI Yeast Anticancer Drug Screen. Data for the mec2-1 strain (AID 157)
Conditions: S. cerevisiae mec2-1 strain, at 50.0 µM, stronger effect = higher value
This is part of a sample that, as a whole, favours compounds with a hit. Of some 79,000 tested, about 15% had one in any assay.
growth inhibition listing for selected compounds.
Give just the number in %; leave the unit off.

>  <compound>
COc1ccc(N=N/C(=N/NC(=O)c2ccccc2)c2ccc(N(CCC#N)CCC#N)cc2C)cc1

>  <growth inhibition, %>
-13.5

$$$$
>  <compound>
O=C1/C(=C\C=C\c2ccccc2)CCC/C1=C/C=C/c1ccccc1

>  <growth inhibition, %>
5.05

$$$$
>  <compound>
COc1ccc2c(c1)CC1=C2CCC2(C)C(=O)CC=C12 (stereo unspecified)

>  <growth inhibition, %>
-8.35

$$$$
>  <compound>
CC1C(=O)C23CC1CCC2C12COC(O)C1C(C)(C)C(O)CC2OC3=O (stereo unspecified)

>  <growth inhibition, %>
-5.95

$$$$
>  <compound>
CCCCCCCCCCCl

>  <growth inhibition, %>
5.85

$$$$

// growth inhibition lookup, key: c1ccc(C(Sc2ncnc3nc[nH]c23)c2ccccc2)cc1
13.2

// growth inhibition lookup, key: CN(C)S(=O)(=O)c1ccc(N)c([N+](=O)[O-])c1
10.7

// growth inhibition lookup, key: CC(=O)c1ccc(N=NN2CCCC2)cc1
8.35

// growth inhibition lookup, key: CCCCCCCCCCCCNC(C)C1=C(O)c2ccccc2C(=O)C1=O (stereo unspecified)
20.3

// growth inhibition lookup, key: O=P(c1ccccc1)(c1ccccc1)c1ccccc1OCCCO
3.2

// growth inhibition lookup, key: COC(=O)C(Cc1c[nH]c2ccccc12)NP(=O)(O)OCC1OC(n2cc(Br)c(=O)[nH]c2=O)CC1O (stereo unspecified)
-15.4
